Can you tell me IC50 for the items I'm about to list?
# tested-target: γ-secretase (Homo sapiens, UniProt P49768)
# Construct: endogenous in cells
# measurement-description: In vitro γ-secretase activity assay, Aβ40 production (ECL)
# Type: biochemical
# run-conditions: in vitro inhibition of γ-secretase activity that generates Aβ40; 2.5 hr at 37° C., ECL detection

[
  {
    "molecule": "O=c1oc2ccccc2c(O)c1C(c1ccc(I)cc1)c1c(O)c2ccccc2oc1=O",
    "reported-endpoint": "IC50",
    "result": "6.1 µM"
  },
  {
    "molecule": "O=C(Cc1cc(F)cc(F)c1)c1c(O)c2ccccc2oc1=O",
    "reported-endpoint": "IC50",
    "result": "89.9 µM"
  },
  {
    "molecule": "C/C=C/C=C/C(c1c(O)c2ccccc2oc1=O)c1c(O)c2ccccc2oc1=O",
    "reported-endpoint": "IC50",
    "result": "9.9 µM"
  }
]

Given the entry O=c1oc2ccccc2c(O)c1C1c2c(F)c(F)c(F)c(F)c2Oc2c1c(=O)oc1ccccc21 (stereo not shown) , what IC50 was observed with γ-secretase (Homo sapiens, UniProt P49768)?
3.4 µM
